Taken from PubChem BioAssay (NCI).

Provide the reported TGI of each item.
- Test system: OVCAR-5 ovarian
- Procedure Details: NCI tumour cell line growth inhibition, 48 h

Below, each entry is followed by its recorded TGI result.
- Substance Smiles: "C[N+](C)(CCO)CCN1c2ccccc2Sc2ccccc21"
  TGI: "> 10 µM"
- Substance Smiles: "Clc1ccc(-c2nnc(-c3c(Cl)c(Cl)c(Cl)c(Cl)c3-c3nc4ccccc4[nH]3)o2)cc1"
  TGI: "> 100 µM"

Quick batch: TGI for everything below.
1. O=c1cc(-c2cccc(OCc3ccccc3)c2)[nH]c2cc3c(cc12)OCO3
2. CC(=O)C1=C(O)CCC1=O
3. Cc1ccc(/C=N/NS(=O)(=O)c2ccc(/C=C3\NC(=O)NC3=O)cc2)cc1

result:
["> 100 µM", "> 100 µM", "> 100 µM"]

----------
- System: HCT-116 colon
- Procedure Details: NCI tumour cell line growth inhibition, 48 h
Measurement Kind: TGI

- Compound: "Nc1nc(=O)n(CC(O)CO)s1 (stereo not given)"
  TGI: "> 100 µM"
- Compound: "N#Cc1nn(-c2cc(=O)[nH]c3ccc(Br)cc23)c(N)c1C#N"
  TGI: "> 100 µM"
- Compound: "O=C1COCCN1C(=O)c1ccccc1Cl"
  TGI: "> 100 µM"
- Compound: "Cc1cc(N(CCOS(C)(=O)=O)CCOS(C)(=O)=O)ccc1C=Nc1ccc(-c2csc(-c3ccc(Br)cc3)n2)cc1"
  TGI: "> 87.9 µM"
- Compound: "CCOP(=O)(OCC)C(F)(F)Cc1cnc(C)c2c1COC(C)(C)O2"
  TGI: "> 10 µM"

Answer for every listed entry: what is its TGI? The entries follow.
1. N#CC(c1ccccc1)N(CCOCCOCCN(C(=O)c1cccc2ccccc12)C(C#N)c1ccccc1)C(=O)c1cccc2ccccc12 (stereo not given)
2. CC(C)NC(=O)OCc1c(COC(=O)NC(C)C)c(-c2ccc[n+](COC(=O)C(C)(C)C)c2)n2c1CCC2
3. COc1ccc2c(c1)OC(c1ccccc1O)CC2=O (stereo not given)
4. O=c1c2cc(S(=O)(=O)Nc3c(Cl)cccc3Cl)ccc2ncn1NS(=O)(=O)c1ccc2ccccc2c1
5. C=C[C@H]1C=Cc2c(OC)cccc2[C@@H]1COP1(=S)NC(C)C(c2ccccc2)O1 (stereo not given in full)

result:
1. > 100 µM
2. > 100 µM
3. > 100 µM
4. > 62.5 µM
5. > 100 µM

----------
- Test system: M14 melanoma
- Procedure Details: NCI tumour cell line growth inhibition, 48 h
For each record, write down the corresponding TGI.

- Compound: "COc1ccc2c(c1)C(=O)c1c-2c(NCCN(C)C)nc2ccccc12"
  Tested System: "M14 melanoma"
  Measurement Kind: "TGI"
  Result: "29.2 µM"

Batch request: TGI per item, same order as input.
1. O=C(O)c1ccc(NNC(=O)c2cccc3c(=O)c4ccccc4[nH]c23)cc1
2. COC(=O)c1ccccc1C1CN=NC12Cc1cc(C)cc(C)c1C2=O (configuration not stated)
3. COc1ccc(C2=NN(C(=O)c3cccnc3)C(O)(c3cc(F)c(Cl)cc3Cl)C2)cc1OC (configuration not stated)
4. COc1cccc(C2c3cc4c(cc3OC(N3CCCCC3)C2C)OCO4)c1OC (configuration not stated)
5. COc1ccc(C(c2ccc3c(c2)OCO3)N2C(=O)CCC2C(=O)O)cc1 (configuration not stated)
6. Cc1ccc(C2SCC(=O)N2NC(=O)c2ccncc2)s1 (configuration not stated)
7. COC(=O)C(=O)C(C(=O)OC)C(=O)C(=O)Nc1cc(Cl)c(Cl)cc1Cl (configuration not stated)
8. O=C1NC2C(CCO)CC=C[C@H]2c2cc3c(cc21)OCO3 (some centres not stated)

result:
["> 100 µM", "> 100 µM", "34.6 µM", "47.1 µM", "> 100 µM", "> 100 µM", "> 100 µM", "> 100 µM"]

----------
- System: OVCAR-4 ovarian
- Procedure Details: NCI tumour cell line growth inhibition, 48 h
Measurement Kind: TGI

- Compound: "Fc1ccc(-c2nc(Nc3ccc(-c4nc5ccccc5[nH]4)cc3)nc(N3CCOCC3)n2)cc1"
  TGI: "2.4 µM"

Below is a list of compounds. For each, state its recorded TGI.
1. COC(=O)[C@@]12C=CC(=O)[C@H]3C[C@@H](C(C(C)C)C1)[C@]32OC (stereo partly drawn)
2. Clc1ccc(-c2nnc(-c3c(Cl)c(Cl)c(Cl)c(Cl)c3-c3nc4ccccc4[nH]3)o2)cc1
3. CCn1c2ccccc2c2cc(NC(=O)c3c(NCCNCCO)nc(=O)[nH]c3C)ccc21
4. Cc1ccc(NC(=O)c2cc3ccccc3cc2O)c(C)c1.Cc1ccc(NC(=O)c2cc3ccccc3cc2[O-])c(C)c1.[Ni+2]
5. Cn1c(=O)c2c(nc(NCCNc3nc4c(c(=O)n(C)c(=O)n4C)n3C)n2C)n(C)c1=O
6. COc1cc(N2CCC(N3CCN(C)CC3)CC2)ccc1Nc1ncc(Cl)c(Nc2ccccc2S(=O)(=O)C(C)C)n1

result:
1: > 100 µM; 2: > 100 µM; 3: > 100 µM; 4: 25.4 µM; 5: > 100 µM; 6: 2.17 µM

----------
I'd be grateful if you could share measured TGI for these entries.
- Test system: HS 578T breast
- Procedure Details: NCI tumour cell line growth inhibition, 48 h
Answers are plain numbers, in µM.

Use the examples below as a reference point.
- Substance Smiles: "Fc1ccc(-c2nc(Nc3ccc(-c4nc5ccccc5[nH]4)cc3)nc(N3CCOCC3)n2)cc1"
  TGI, µM: 3.02
- Substance Smiles: "COc1cccc(Nc2nc(N)nc(N)c2N=O)c1"
  TGI, µM: 82.4
- Substance Smiles: "CN1CCN(CC(=O)N2c3cccc4cccc(c34)N(C(=O)CN3CCN(C)CC3)C2c2cn(-c3ccccc3)nc2-c2cccc([N+](=O)[O-])c2)CC1"
  TGI, µM: 5.71

query: Entry CC1=C[C@@H]2[C@@H](CC(CO)=C[C@H]3[C@@H]4C(C)(C)[C@]4(OCC(C)C)[C@H](OCC(C)C)[C@@H](C)[C@]23O)C1=O : reported TGI = ?
result: 2.71

----------
- Tested on: BT-549 breast
- Procedure Details: NCI tumour cell line growth inhibition, 48 h
Measurement Kind: TGI

Study these solved cases before continuing.
- Substance Smiles: "c1cc(C[S+]2CCCC2)sc1C[S+]1CCCC1"
  Tested System: "BT-549 breast"
  TGI: "> 100 µM"
- Substance Smiles: "O=C1COCCN1C(=O)c1ccccc1Cl"
  Tested System: "BT-549 breast"
  TGI: "> 100 µM"
- Substance Smiles: "CCN(CC)C(=S)SS(=O)(=O)c1ccc(NC(C)=O)cc1"
  Tested System: "BT-549 breast"
  TGI: "> 78.4 µM"

query: API: value(readout= TGI, system= BT-549 breast, query= CC(C)c1ccc2nc3ccc(C(=O)NCCN4CCN(c5ccccc5)CC4)cn3c(=O)c2c1 )
result: > 100 µM

----------
- System: U251 CNS
- Procedure Details: NCI tumour cell line growth inhibition, 48 h
Consider the following compounds; for each one, report its TGI.

Known results for compounds:
- Substance Smiles: "COCN1C(=O)[C@@H]2CCCN2C(=O)c2ccc([N+](=O)[O-])cc21"
  TGI: "> 100 µM"
- Substance Smiles: "COC(=O)C1(C(=O)OC)CC2=C(S(=O)(=O)c3ccccc3)C[C@H](C#N)[C@H]2C1"
  TGI: "> 100 µM"

Now turn to the next compound.
query: Quick one: TGI for Fc1ccc2c3c([nH]c2c1)CCNC3 ?
result: > 100 µM

----------
Consider the following compounds; for each one, report its TGI.
- Tested on: MCF7 breast
- Procedure Details: NCI tumour cell line growth inhibition, 48 h

- Compound: "O=C(CC(=O)N1N=C(N(c2ccccc2)c2ccccc2)CC1c1ccccc1)Nc1ccccc1 (stereo not drawn)"
  TGI: "> 100 µM"
- Compound: "N#CCc1nc(-c2cc3c(ccc4ccccc43)oc2=O)cs1"
  TGI: "> 100 µM"

Please look at the following compound next.
query: Please report the recorded TGI for O=C(O)CCSC(=S)Nc1ccc([N+](=O)[O-])cc1 .
result: > 100 µM

----------
- Test system: 786-0 renal
- Procedure Details: NCI tumour cell line growth inhibition, 48 h
Measurement Kind: TGI

Some entries whose results are on file:
- Compound: "CN(C)c1nc(=NCc2cccnc2)ss1"
  TGI: "> 10 µM"
- Compound: "Cc1ccc(NC(=O)CC2C(=O)Nc3ccccc3S2=O)c(C)c1 (configuration not stated)"
  TGI: "33.4 µM"
- Compound: "O=C(OCc1ccccc1)N1CCCc2c(n(S(=O)(=O)c3ccccc3)c3ccccc23)C1"
  TGI: "> 100 µM"

Working through the 4 compounds below one at a time, give TGI for each.
1. C=C(C)[C@@H]1CC[C@]2(C(N)=O)CC[C@]3(C)[C@H](CC[C@@H]4[C@@]5(C)C/C(=C/c6cccnc6)[C@H](O)C(C)(C)[C@@H]5CC[C@]43C)[C@@H]12
2. COC(=O)[C@@H]1OC(C)(c2ccccc2)O[C@H]1C(=O)OC
3. CC/C(SC)=[N+](\C)[O-]
4. FC(F)(F)c1cccc(C2SCc3nc4ccccc4n32)c1 (configuration not stated)

result:
1: > 100 µM; 2: > 100 µM; 3: > 100 µM; 4: > 100 µM
